target: isolated recombinant JAK2 kinase domain (Homo sapiens (Human)); assay: JAK2 enzyme assay (Caliper LabChip, Ki)
pKi: −log10 of the molar value.
Measured Quantity: pKi

Known pKi results, listed for orientation:
1) N#CC[C@]1(n2cc(C(N)=O)c(NC(=O)C3CC3)n2)CC[C@H](NC2CCC(F)(F)CC2)CC1 :: < 6.50
2) CCOC1(C(F)(F)F)CN([C@H]2CC[C@](CC#N)(n3cc(C(N)=O)c(NC(=O)C4CC4)n3)CC2)C1 (single isomer, unassigned) :: < 6.50

**Q:** Tell me the measured pKi of N#CC[C@]1(n2cc(C(N)=O)c(NC(=O)C3CC3)n2)CC[C@H](NC2CC(F)(F)C2)CC1 , please.
**A:** < 6.50

====

target: isolated recombinant JAK2 kinase domain (Homo sapiens (Human), UniProt O60674); experiment: JAK2 enzyme assay (Caliper LabChip, Ki)
Sequence (O60674 849-1124): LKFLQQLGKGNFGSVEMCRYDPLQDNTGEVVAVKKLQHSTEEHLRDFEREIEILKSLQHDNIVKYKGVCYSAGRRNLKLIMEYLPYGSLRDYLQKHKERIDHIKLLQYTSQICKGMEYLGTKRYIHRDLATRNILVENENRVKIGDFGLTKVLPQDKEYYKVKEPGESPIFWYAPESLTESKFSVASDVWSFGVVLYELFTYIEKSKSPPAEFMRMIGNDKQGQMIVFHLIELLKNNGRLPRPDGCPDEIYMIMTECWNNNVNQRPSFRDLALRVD
Measured Quantity: pKi
Numbers only, as −log10 of the molar value.

1) COC(=O)Nc1nn(C2(CC#N)CCN(Cc3cc(O)c(C)cc3F)CC2F)cc1C(N)=O (centres unmarked) :: 9.15
2) COC(=O)Nc1nn(C2(CC#N)CCN(Cc3ccc(-n4nccn4)cc3)CC2)cc1C(N)=O :: 7.66
3) C#Cc1ccc(CN2CCC(CC#N)(n3cc(C(N)=O)c(NC(=O)OC)n3)C(F)C2)c(Cl)c1 (centres unmarked) :: 9.26
4) N#CCC1(n2cc(C(N)=O)c(NC(=O)OC3CC3)n2)CCN(Cc2ccc(-c3ccccc3)c(O)c2)CC1 :: 8.42
5) COC(=O)Nc1nn(C2(CC#N)CCN(Cc3cc(O)ccc3Cl)CC2F)cc1C(N)=O (centres unmarked) :: 9.51

Could I get pKi for every one of these entries?
1. N#CCC1(n2cc(C(N)=O)c(NC(=O)C3CC3)n2)CCN(C(=O)OCC(F)(F)F)CC1
2. COC(=O)Nc1nn(C2(CC#N)CCN(Cc3ccc(-c4csc(C)n4)cc3)CC2F)cc1C(N)=O (centres unmarked)

**A:**
1: 7.54; 2: 9.25

====

target: isolated recombinant JAK2 kinase domain (Homo sapiens (Human), UniProt O60674); test: JAK2 enzyme assay (Caliper LabChip, Ki)
For each entry below, report its Ki value.
Give bare numbers, in nM.

Known Ki results, listed for orientation:
1) C#Cc1ccc(CN2CCC(CC#N)(n3cc(C(N)=O)c(NC(=O)OC)n3)C(F)C2)cc1 (centres unmarked) :: 0.9
2) CCc1cccc(-c2ccc(CN3CCC(CC#N)(n4cc(C(N)=O)c(NC(=O)C5CC5)n4)CC3)cc2)c1 :: 8.7
3) N#CCC1(n2cc(C(N)=O)c(NC(=O)C3CC3C#N)n2)CCN(Cc2ccc(-c3ccccc3)cc2)CC1F (centres unmarked) :: 1.2
4) CCc1ccc(-c2ccc(CN3CCC(CC#N)(n4cc(C(N)=O)c(NC(=O)C5CC5C#N)n4)C(F)C3)cc2O)cc1 (centres unmarked) [Example 221] :: 1.7
5) C#CC1CC1C(=O)Nc1nn(C2(CC#N)CCN(Cc3ccc(-c4ccccc4)cc3)CC2F)cc1C(N)=O (centres unmarked) :: 0.82

Could I get Ki for every one of these entries?
1. N#CCC1(n2cc(C(N)=O)c(NC(=O)C3CC3)n2)CCN(Cc2ccc(-c3cccc(Cl)c3)cc2)CC1
2. N#CC[C@]1(n2cc(C(N)=O)c(NC(=O)C3CC3)n2)CCN(Cc2ccc(-c3ccccc3)cc2)C[C@@H]1F (single isomer, unassigned)
3. C=C(C)c1cc(F)c(CN2CCC(CC#N)(n3cc(C(N)=O)c(NC(=O)OC)n3)C(F)C2)cc1O (centres unmarked)
4. Cc1ccc(OC2(C)CN([C@H]3CC[C@](CC#N)(n4cc(C(N)=O)c(NC(=O)C5CC5)n4)CC3)C2)cc1
5. COC(=O)Nc1nn(C2(CC#N)CCN(Cc3cc(O)c(Br)cc3Cl)CC2F)cc1C(N)=O (centres unmarked)
6. N#CCC1(n2cc(C(N)=O)c(NC(=O)C3CC3)n2)CCC(Nc2ccccc2Cl)CC1 (centres unmarked)

**A:**
[8.2, 6.8, 0.61, 1.3, 0.59, 13]

====

target: isolated recombinant JAK1 kinase domain (Homo sapiens (Human)); assay: JAK1 enzyme assay (Caliper LabChip, Ki); format: biochemical; conditions: read-out: JAK1 Ki
Sequence (P23458 875-1153): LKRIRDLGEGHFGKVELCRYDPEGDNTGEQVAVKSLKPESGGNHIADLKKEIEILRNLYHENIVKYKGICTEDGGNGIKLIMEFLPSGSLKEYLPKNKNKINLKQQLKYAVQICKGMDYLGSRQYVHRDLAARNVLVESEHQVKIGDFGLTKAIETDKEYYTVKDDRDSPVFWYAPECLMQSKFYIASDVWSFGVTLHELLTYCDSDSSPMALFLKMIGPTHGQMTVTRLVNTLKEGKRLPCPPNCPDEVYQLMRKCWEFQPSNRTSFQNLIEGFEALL
For each entry below, report its log10 Ki value.
Response schema: value (number) is log10 of Ki in units of nM.

Known log10 Ki results, listed for orientation:
1) C#Cc1ccc(CN2CCC(CC#N)(n3cc(C(N)=O)c(NC(=O)C4CC4)n3)C(F)C2)c(Cl)c1 (stereo not drawn) [Example 280] :: -0.52
2) N#CCC1(n2cc(C(N)=O)c(NC(=O)C3CC3)n2)CCN(Cc2ccc(-c3ccco3)cc2)CC1F (stereo not drawn) [Example 215] :: -0.62
3) N#CCC1(n2cc(C(N)=O)c(NC(=O)C3CC3)n2)CCC(N2CC(F)(c3ccccc3)C2)CC1 (stereo not drawn) [Example 205] :: -0.05

Could I get log10 Ki for every one of these entries?
1. COC1(C(F)(F)F)CN([C@H]2CC[C@](CC#N)(n3cc(C(N)=O)c(NC(=O)C4CC4)n3)CC2)C1 [Example 132]
2. COC(=O)Nc1nn(C2(CC#N)CCN(Cc3ccc(-c4ccccc4)c(O)c3)CC2)cc1C(N)=O [Example 186]
3. C=C(C)c1cc(F)c(CN2CCC(CC#N)(n3cc(C(N)=O)c(NC(=O)OC)n3)C(F)C2)cc1O (stereo not drawn) [Example 274]
4. CC1(Oc2ccc(C(F)(F)F)cc2)CN(C2CCC(CC#N)(n3cc(C(N)=O)c(NC(=O)C4CC4)n3)CC2)C1 (stereo not drawn) [Example 295]
5. N#CCC1(n2cc(C(N)=O)c(NC(=O)C3CC3C#N)n2)CCN(Cc2ccc(-c3ccccc3)cc2F)CC1F (stereo not drawn) [Example 219]

**A:**
[2.34, -0.62, -0.24, 0.30, 0.23]

Could I get log10 Ki for every one of these entries?
1. N#CCC1(n2cc(C(N)=O)c(NC(=O)C3CC3)n2)CCN(Cc2ccc(-c3ccn(C(F)(F)F)n3)cc2)CC1 [Example 83]
2. N#CCC1(n2cc(C(N)=O)c(NC(=O)C3CC3)n2)CCN(Cc2cccc(CN)c2)CC1 [Example 97]
3. C#Cc1ccc(CN2CCC(CC#N)(n3cc(C(N)=O)c(NC(=O)OC)n3)C(F)C2)c(Cl)c1 (stereo not drawn) [Example 289]
4. Cc1c(CN2CCC(CC#N)(n3cc(C(N)=O)c(NC(=O)C4CC4C#N)n3)C(F)C2)ccc(-c2ccccc2)c1O (stereo not drawn) [Example 250]
5. Cc1ccc(OC2(C)CN([C@H]3CC[C@](CC#N)(n4cc(C(N)=O)c(NC(=O)C5CC5)n4)CC3)C2)cc1 [Example 300]
6. CCC1(n2cc(C(N)=O)c(Nc3ccc(S(=O)(=O)C(F)F)cc3)n2)CCN(Cc2cc(O)ccc2F)CC1 [Example 301]
7. COC(=O)Nc1nn(C2(CC#N)CCN(CC3CCC(c4ccccc4)CC3)CC2F)cc1C(N)=O (stereo not drawn) [Example 235]

**A:**
1.21
1.61
-0.59
-0.51
0.18
0.18
-0.49

Could I get log10 Ki for every one of these entries?
1. Cn1ccc(-c2ccc(CN3CCC(CC#N)(n4cc(C(N)=O)c(NC(=O)C5CC5)n4)CC3)cc2)n1 [Example 82]
2. N#CCC1(n2cc(C(N)=O)c(NC(=O)C3CC3)n2)CCN(Cc2ccc(-n3nccn3)c(O)c2)CC1 [Example 277]

**A:**
1. 0.69
2. -0.13

====

target: isolated recombinant JAK1 kinase domain (Homo sapiens (Human)); assay: JAK1 enzyme assay (Caliper LabChip, Ki); type: biochemical; details: read-out: JAK1 Ki
Measured Quantity: log10(Ki) (log10 of the value in nM)
Response schema: value (number) is log10 of Ki in units of nM.

Known log10(Ki) results, listed for orientation:
1) N#CCC1(n2cc(C(N)=O)c(NC(=O)C3CC3)n2)CCN(Cc2ccc(F)cc2)CC1 :: 0.59
2) N#CCC1(n2cc(C(N)=O)c(NC(=O)[C@H]3C[C@@H]3C3CC3)n2)CCN(CC(F)(F)F)CC1 (stereo in doubt) :: 1.27
3) N#CCC1(n2cc(C(N)=O)c(NC(=O)C3CC3)n2)CCN(Cc2cccc(OC(F)(F)F)c2)CC1 :: 1.44
4) Cc1cnn(-c2ccc(CN3CCC(CC#N)(n4cc(C(N)=O)c(NC(=O)C5CC5)n4)CC3)cc2)n1 :: 0.00
5) CCc1ccc(-c2ccc(CN3CCC(CC#N)(n4cc(C(N)=O)c(NC(=O)OC)n4)C(F)C3)cc2)o1 (centres unmarked) :: -0.49
6) N#CCC1(n2cc(C(N)=O)c(NC(=O)C3CC3)n2)CCN(Cc2ccc(-c3ccc(C(F)(F)F)cc3)cc2)CC1 :: 0.53

Could I get log10(Ki) for every one of these entries?
1. N#CCC1(n2cc(C(N)=O)c(NC(=O)C3CC3)n2)CCN(Cc2ccc3cc[nH]c3c2)CC1
2. N#CCC1(n2cc(C(N)=O)c(NC(=O)C3CC3)n2)CCN(Cc2cnn(-c3ccccc3)c2)CC1
3. N#CCC1(n2cc(C(N)=O)c(NC(=O)[C@@H]3C[C@H]3F)n2)CCN(CC(F)(F)F)CC1
4. Cc1ccc(-c2ccc(CN3CCC(CC#N)(n4cc(C(N)=O)c(NC(=O)C5CC5)n4)C(F)C3)cc2)o1 (centres unmarked)
5. CC(OC(=O)N1CCC(CC#N)(n2cc(C(N)=O)c(NC(=O)C3CC3)n2)CC1)C1CC1 (centres unmarked)
6. N#CCC1(n2cc(C(N)=O)c(NC(=O)C3CC3)n2)CCN(Cc2ccc(-c3ncco3)cc2)CC1F (centres unmarked)
7. CS(=O)(=O)Nc1ccc(CN2CCC(CC#N)(n3cc(C(N)=O)c(NC(=O)C4CC4)n3)CC2)cc1

**A:**
0.92
0.86
0.93
-0.42
0.67
0.08
1.62

Reference for the values: patent US11731943B2
